Each entry below lists one item and its recorded AC50 value.
Molecular target: D(1A) dopamine receptor (Homo sapiens, UniProt P21728)
Sequence (P21728 whole entry): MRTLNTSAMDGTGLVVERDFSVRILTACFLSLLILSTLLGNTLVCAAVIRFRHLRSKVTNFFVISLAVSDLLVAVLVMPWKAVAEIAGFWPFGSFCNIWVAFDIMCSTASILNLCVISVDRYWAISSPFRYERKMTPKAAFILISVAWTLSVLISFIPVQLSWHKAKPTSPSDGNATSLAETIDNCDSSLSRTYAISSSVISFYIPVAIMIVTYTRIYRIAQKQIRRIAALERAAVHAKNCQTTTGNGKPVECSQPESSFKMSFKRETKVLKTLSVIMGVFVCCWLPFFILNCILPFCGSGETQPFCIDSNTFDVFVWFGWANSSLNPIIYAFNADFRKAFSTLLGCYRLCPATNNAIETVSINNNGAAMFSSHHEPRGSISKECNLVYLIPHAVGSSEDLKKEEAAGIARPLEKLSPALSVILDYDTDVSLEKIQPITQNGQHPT
Format: functional, cell-based

Q: Item under review: COc1ccc(C(=O)NCc2ccc(OCCN(C)C)cc2)cc1OC [ITOPRIDE] . Reported AC50?
A: > 30 µM

Q: Need AC50, item CCCCCCCCOc1ccccc1C(=O)Nc1ccc(C(=O)OCC[N+](C)(CC)CC)cc1 [OTILONIUM BROMIDE]
A: > 30 µM

Q: Form field: reported AC50 of NC(=O)c1cnccn1 [PYRAZINAMIDE]
A: > 30 µM

Q: Please look up its AC50: N[C@@H](C(=O)N[C@@H]1C(=O)N2C(C(=O)O)=C(Cl)CS[C@H]12)c1ccccc1 [CEFACLOR ANHYDROUS]
A: > 30 µM

Q: Can you share its AC50? I mean this compound: CN(C/C=C/c1ccccc1)Cc1cccc2ccccc12
A: > 10 µM

Others:
Q: Entry CC(=O)O[C@@]12CO[C@@H]1C[C@H](O)[C@@]1(C)C(=O)[C@H](O)C3=C(C)[C@@H](OC(=O)[C@H](O)[C@@H](NC(=O)OC(C)(C)C)c4ccccc4)C[C@@](O)([C@@H](OC(=O)c4ccccc4)[C@H]21)C3(C)C [DOCETAXEL ANHYDROUS] has what AC50?
A: > 30 µM

Q: May I ask what AC50 has been recorded for CC(=O)N[C@H]1[C@H]([C@H](O)[C@H](O)CO)OC(C(=O)O)=C[C@@H]1N=C(N)N ?
A: > 30 µM

Q: Can you look up the measured AC50 of CN1CC(=O)N2[C@H](c3ccc4c(c3)OCO4)c3[nH]c4ccccc4c3C[C@@H]2C1=O for me?
A: > 10 µM

Q: Would you mind telling me what AC50 value was observed for C[C@H]1O[C@H](O[C@H]2[C@H](O)[C@@H](O)[C@@H](O[C@H]3[C@H](O)[C@@H](O)C(O)O[C@@H]3CO)O[C@@H]2CO)[C@H](O)[C@@H](O)[C@@H]1N[C@H]1C=C(CO)[C@@H](O)[C@H](O)[C@H]1O (stereo partly specified) ?
A: > 10 µM

Q: # AC50 lookup, item COC(=O)C1=C(C)NC(C)=C(C(=O)OC)C1c1ccccc1[N+](=O)[O-]
A: > 10 µM

Q: Looking for the measured AC50 of CC(C)C(=O)Nc1ccc([N+](=O)[O-])c(C(F)(F)F)c1 [FLUTAMIDE] , can you help?
A: > 30 µM

Q: For the compound shown here, C[N+](C)(C)CCOC(N)=O , give the reported AC50.
A: > 30 µM

Q: Look up AC50: NC[C@H]1CC[C@H](C(=O)O)CC1
A: > 30 µM

Q: Quick one: AC50 for CC(C)NCC1CCc2cc(CO)c([N+](=O)[O-])cc2N1 (stereo unspecified) ?
A: > 10 µM

Q: Quick one: AC50 of CCCC(CCC)C(=O)O[C@H]1C[C@H]2CC[C@@H](C1)[N+]2(C)C ?
A: > 30 µM

Q: Quick one: AC50 for O=C(NC[C@H]1CN(c2ccc(N3CCOCC3=O)cc2)C(=O)O1)c1ccc(Cl)s1 ?
A: > 30 µM

====

Target: Neuronal acetylcholine receptor subunit alpha-4 (Homo sapiens); also: assay procedure not described here
Sequence (P43681 whole entry): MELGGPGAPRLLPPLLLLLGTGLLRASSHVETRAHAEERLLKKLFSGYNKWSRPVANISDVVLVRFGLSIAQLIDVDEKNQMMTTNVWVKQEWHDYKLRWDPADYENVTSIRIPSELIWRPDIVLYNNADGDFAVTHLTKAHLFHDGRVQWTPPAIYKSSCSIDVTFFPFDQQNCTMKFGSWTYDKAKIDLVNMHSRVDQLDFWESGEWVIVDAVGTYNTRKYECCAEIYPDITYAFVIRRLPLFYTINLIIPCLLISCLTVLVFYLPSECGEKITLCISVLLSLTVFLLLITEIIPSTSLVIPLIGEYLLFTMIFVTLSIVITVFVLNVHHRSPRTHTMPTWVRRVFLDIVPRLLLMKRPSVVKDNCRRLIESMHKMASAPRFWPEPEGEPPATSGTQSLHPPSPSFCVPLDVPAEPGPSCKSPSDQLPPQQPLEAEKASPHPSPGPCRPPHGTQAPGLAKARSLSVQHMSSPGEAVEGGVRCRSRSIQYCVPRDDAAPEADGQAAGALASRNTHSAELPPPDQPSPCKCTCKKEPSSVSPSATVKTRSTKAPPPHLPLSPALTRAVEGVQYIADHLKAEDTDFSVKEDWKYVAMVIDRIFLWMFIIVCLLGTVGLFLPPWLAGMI
// values below are reported AC50

A selection of reference data follows.
Q: What value of AC50 has been recorded for this entry: CCN(CC)CCNC(=O)c1cc(Cl)c(N)cc1OC [METOCLOPRAMIDE]
A: > 10 µM

Q: Fill blank: measured AC50 of the molecule O=C(CCCCC(=O)Nc1c(I)cc(I)c(C(=O)O)c1I)Nc1c(I)cc(I)c(C(=O)O)c1I [IODIPAMIDE] is ____.
A: > 10 µM

Q: Entry under review: COC(=O)C1=C(C)NC(C)=C(C(=O)OC(C)C)C1c1cccc2nonc12 (stereo not given) . Reported AC50?
A: > 30 µM

Q: Which AC50 is reported for this molecule? COc1ccc(C(=O)N2CCN(c3ccc4c(c3)CCC(=O)N4)CC2)cc1OC
A: > 30 µM

Further cases:
Q: Which AC50 value belongs to N[C@@H](C(=O)N[C@@H]1C(=O)N2C(C(=O)O)=C(Cl)CS[C@H]12)c1ccccc1 [CEFACLOR ANHYDROUS] ?
A: > 30 µM

====

Biological target: Thromboxane A2 receptor (Homo sapiens); also: assay procedure not described here
Sequence (P21731 whole entry): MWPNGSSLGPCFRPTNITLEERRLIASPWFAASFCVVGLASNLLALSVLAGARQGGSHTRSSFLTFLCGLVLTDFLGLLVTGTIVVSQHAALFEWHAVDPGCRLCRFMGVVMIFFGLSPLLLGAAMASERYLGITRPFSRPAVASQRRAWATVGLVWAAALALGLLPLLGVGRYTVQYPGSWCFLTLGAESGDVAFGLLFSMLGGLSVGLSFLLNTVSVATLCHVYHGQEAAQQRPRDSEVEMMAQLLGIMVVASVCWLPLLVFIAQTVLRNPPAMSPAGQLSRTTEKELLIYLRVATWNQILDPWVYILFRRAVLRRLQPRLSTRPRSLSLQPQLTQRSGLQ
attributeMeasured: AC50

Q: Form entry - test system: Thromboxane A2 receptor (Homo sapiens); read-out: AC50; compound: CCC(C(=O)O)c1ccc(CC(C)C)cc1 (configuration not stated); also: assay procedure not described here
A: > 30 µM

Others:
Q: Lab note: need AC50 with Thromboxane A2 receptor (Homo sapiens) for entry CS(=O)(=O)c1ccc([C@@H](O)[C@@H](CO)NC(=O)C(Cl)Cl)cc1 , please look it up.
A: > 30 µM

Q: What reported AC50 corresponds to CC(C(O)c1ccc(O)cc1)N1CCC(Cc2ccccc2)CC1 (configuration not stated) on Thromboxane A2 receptor (Homo sapiens)?
A: > 30 µM

Q: Thromboxane A2 receptor (Homo sapiens) / AC50 / CN1C(=O)COc2c(C(=O)NC3CN4CCC3CC4)cc(Cl)cc21 (configuration not stated) : value?
A: > 30 µM

Q: Give the reported AC50 for NC(CO)C(=O)NNCc1ccc(O)c(O)c1O (configuration not stated) [BENSERAZIDE] (system: Thromboxane A2 receptor (Homo sapiens)). Also: assay procedure not described here.
A: > 30 µM

Q: Field: AC50 (Thromboxane A2 receptor (Homo sapiens)). Entry: CCCCN1CCCCC1C(=O)Nc1c(C)cccc1C (configuration not stated)
A: > 30 µM

Q: Query for Thromboxane A2 receptor (Homo sapiens): what AC50 does the record show for CNC(=O)c1cc(Oc2ccc(NC(=O)Nc3ccc(Cl)c(C(F)(F)F)c3)cc2)ccn1 ?
A: 16.3 µM

Q: Item: Nc1nc(N)c2nc(-c3ccccc3)c(N)nc2n1 Test system: Thromboxane A2 receptor (Homo sapiens) Read-out: AC50 Value: ?; also: assay procedure not described here
A: > 30 µM

Q: // fetch Thromboxane A2 receptor (Homo sapiens) AC50 for C[C@H]1C[C@@H]2[C@H]([C@@H](O)C[C@@]3(C)[C@H]2CC[C@]3(O)C(=O)CO)[C@@]2(C)C=CC(=O)C=C12
A: > 10 µM

Q: Short answer please: AC50, Thromboxane A2 receptor (Homo sapiens), entry CC(=O)O[C@@]12CO[C@@H]1C[C@H](O)[C@@]1(C)C(=O)[C@H](O)C3=C(C)[C@@H](OC(=O)[C@H](O)[C@@H](NC(=O)OC(C)(C)C)c4ccccc4)C[C@@](O)([C@@H](OC(=O)c4ccccc4)[C@H]21)C3(C)C [DOCETAXEL ANHYDROUS]
A: > 30 µM

Q: Checklist item: AC50 tested on Thromboxane A2 receptor (Homo sapiens), entry CC(N)Cc1ccccc1 (configuration not stated) , value?; also: assay procedure not described here
A: > 30 µM

Q: Given the entry CN1CC(=O)N2[C@H](c3ccc4c(c3)OCO4)c3[nH]c4ccccc4c3C[C@@H]2C1=O , what AC50 was observed with Thromboxane A2 receptor (Homo sapiens)?
A: > 30 µM

Q: Fill in the recorded AC50 for this compound, with Thromboxane A2 receptor (Homo sapiens) as test system: C=C1CC[C@@]2(O)[C@H]3Cc4ccc(O)c5c4[C@@]2(CCN3CC2CC2)[C@H]1O5
A: > 30 µM

====

The following molecules have recorded AC50 on UniProt P35372.
Sequence (P35372 whole entry): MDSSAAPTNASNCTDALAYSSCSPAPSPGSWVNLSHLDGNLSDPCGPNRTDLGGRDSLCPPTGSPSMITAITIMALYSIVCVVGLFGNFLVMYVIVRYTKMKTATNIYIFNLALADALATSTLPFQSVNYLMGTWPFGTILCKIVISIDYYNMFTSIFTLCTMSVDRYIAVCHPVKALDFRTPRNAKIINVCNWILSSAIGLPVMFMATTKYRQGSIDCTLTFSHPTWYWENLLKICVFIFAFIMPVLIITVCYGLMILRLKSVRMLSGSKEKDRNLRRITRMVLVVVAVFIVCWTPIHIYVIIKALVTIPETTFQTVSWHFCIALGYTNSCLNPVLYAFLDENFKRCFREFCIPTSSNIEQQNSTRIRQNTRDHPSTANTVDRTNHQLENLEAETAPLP

Q: What measured AC50 goes with CN1CCC2=C(C1)c1ccccc1Cc1ccccc12 [SETIPTILINE] ?
A: 12.8 µM

Q: Item under review: CN(C)C(=O)Oc1ccc[n+](C)c1 [PYRIDOSTIGMINE] . Reported AC50?
A: > 30 µM

Q: // AC50 lookup, key: OC[C@@H](O)[C@@H](O)[C@H](O)[C@H](O)CO [MANNITOL]
A: > 30 µM

Q: So what does the record say about AC50 for Oc1cccc2cccnc12 [OXYQUINOLINE] ?
A: > 30 µM

Q: GET /values?readout=AC50&item= CCOc1ccc(/C=C2\NCCc3cc(OCC)c(OCC)cc32)cc1OCC [DROTAVERINE]
A: > 10 µM

Q: Report AC50 for CN(CCOc1ccc(NS(C)(=O)=O)cc1)CCc1ccc(NS(C)(=O)=O)cc1 [DOFETILIDE] please.
A: > 30 µM

====

Heads up, these compounds all have AC50 values measured for D(1A) dopamine receptor (Homo sapiens, UniProt P21728).

Worked examples, 5 compounds total:
Q: What does the record list as AC50 for Nc1nc(N)c2nc(-c3ccccc3)c(N)nc2n1 ?
A: > 30 µM

Q: Data request, read-out AC50, for NC(=O)c1cnccn1 [PYRAZINAMIDE]
A: > 30 µM

Q: What value of measured AC50 is listed for Oc1ncnc2[nH]ncc12 ?
A: > 30 µM

Q: Using the record for CC(C)C(=O)Nc1ccc([N+](=O)[O-])c(C(F)(F)F)c1 [FLUTAMIDE] , report its AC50.
A: > 30 µM

Q: Returns the measured AC50 for the input compound. Input: CCN1CCC[C@H]1CNC(=O)c1cc(S(N)(=O)=O)ccc1OC [LEVOSULPIRIDE]
A: 12 µM

Next, consider the following compound.
Q: Which AC50 value belongs to CC(=O)c1ccc2c(c1)N(CCCN1CCN(CCO)CC1)c1ccccc1S2 ?
A: 0.1 µM

The measured values listed here are drawn from ChEMBL document CHEMBL5291721.
